- target.desc: GST
- run.description: SPOT array
- conditions: median of control spots 978
measured.metric: SPOT intensity
Numbers only.

Worked set:
binder: RNNRPVPPPPPMRTT
SPOT intensity: 0

binder: GRLRPKRIAPWHLIQ
SPOT intensity: 0

binder: PLRRTVMSLPGNHDI
SPOT intensity: 0

binder: APKHAPPPVPNETDN
SPOT intensity: 0

binder: GERSRPLVISILSSA
SPOT intensity: 0

Look at each binder and report its SPOT intensity.
1. RKNRAPPQRPRFNRE
2. KTRLRPAFIQQLWSS
3. KKEKKPPKIPKKVYT

Response:
4
0
3
